- Tested on: Huh-7 HCV replicon cells (1b replicon)
- Assay explanation: anti-HCV activity in Huh-7 cell line harboring a HCV replicon (luciferase readout)
- Format: cell-based
- Condition info: Hepatitis C virus, Huh-7, read-out: Replicon 1b % inhibition at 1 μM, 1b replicon, 1 μM compound
Entries and their measured inhibition at 1 µM follow.
Write down the numeric answer in % and omit the unit.

molecule=CC(C)[C@@H]1OC(=O)[C@@](C)(CO)CCc2ccc3ccc(nc3c2)[C@@H](C)NC(=O)[C@@H]2CCCN(N2)C(=O)[C@H](C)NC1=O system="Huh-7 HCV replicon cells (1b replicon)" reported_metric="inhibition at 1 µM" recorded_result=84

# context switch: different molecule, same inhibition at 1 µM
Prompt line: Query: inhibition at 1 µM; subject: CC(C)[C@@H]1OC(=O)C2(/C=C/c3ccc4ccc(nc4c3)[C@@H](C)NC(=O)[C@@H]3CCCN(N3)C(=O)[C@H](C)NC1=O)CN(S(C)(=O)=O)CCO2 (stereo partly drawn)
Response line: 96

====

- System: Huh-7 HCV replicon cells (1b replicon)
- Assay explanation: anti-HCV activity in Huh-7 cell line harboring a HCV replicon (luciferase readout)
- Format: cell-based
- Condition info: Hepatitis C virus, Huh-7, read-out: Replicon 1b % inhibition at 1 μM, 1b replicon, 1 μM compound
In this section we review reported inhibition at 1 µM values for a set of molecules.

Examples from the recorded data:
molecule=CC(C)[C@@H]1OC(=O)C2(/C=C/c3ccc4ccc(nc4c3)[C@@H](C)NC(=O)[C@@H]3CCCN(N3)C(=O)[C@H](C)NC1=O)CCN(S(C)(=O)=O)CC2 recorded_result=98%
molecule=CCCC(=O)O[C@H]1CC[C@@]2(/C=C/c3ccc4ccc(nc4c3)[C@@H](C)NC(=O)[C@@H]3CCCN(N3)C(=O)[C@H](C)NC(=O)[C@H](C(C)C)OC2=O)CC1 recorded_result=99%

Next item in the queue.
Prompt line: inhibition at 1 µM lookup needed for CON=C1CCC2(/C=C/c3ccc4ccc(nc4c3)[C@@H](C)NC(=O)[C@@H]3CCCN(N3)C(=O)[C@H](C)NC(=O)[C@H](C(C)C)OC2=O)CC1 (stereo partly drawn) , thanks.
Response line: 100%

====

- System: cyclophilin A (Homo sapiens)
- Sequence (P62937 whole entry, species assumed): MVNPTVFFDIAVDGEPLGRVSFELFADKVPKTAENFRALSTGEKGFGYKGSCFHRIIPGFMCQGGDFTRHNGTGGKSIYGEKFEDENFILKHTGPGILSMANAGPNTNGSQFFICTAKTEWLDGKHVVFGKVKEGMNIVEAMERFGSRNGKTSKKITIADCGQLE
- Assay explanation: Cyclophilin A TR-FRET competitive binding assay
- Condition info: competition with CsA-Cy5 for His-tagged CypA, two-hour incubation
Reported metric: IC50

compound="CC(C)[C@@H]1OC(=O)C2(/C=C/c3ccc4ccc(nc4c3)[C@@H](C)NC(=O)[C@@H]3CCCN(N3)C(=O)[C@H](C)NC1=O)COC(C)(C)CO2 (single isomer, unassigned)" reported_metric=IC50 recorded_result="< 100 nM"

Prompt line: I would be grateful if you could share the reported IC50 for C[C@@H]1NC(=O)[C@H](C(C)(C)F)OC(=O)C2(/C=C/c3ccc4ccc(nc4c3)[C@@H](C)NC(=O)[C@@H]3CCCN(N3)C1=O)COCOC2 .
Response line: 1000 to 10000 nM

Prompt line: I would be grateful if you could share the reported IC50 for CCCC(=O)O[C@H]1CC[C@@]2(/C=C/c3ccc4ccc(nc4c3)[C@@H](C)NC(=O)[C@@H]3CCCN(N3)C(=O)[C@H](C)NC(=O)[C@H](C(C)C)OC2=O)CC1 .
Response line: < 100 nM

Prompt line: Record request: IC50 value, item CC(C)[C@@H]1OCCC/C=C/c2cc3cc(ccc3cn2)[C@@H](C)OC(=O)[C@@H]2CCCN(N2)C(=O)[C@H](C)NC1=O
Response line: < 100 nM

Prompt line: What measured IC50 goes with C[C@@H]1NC(=O)[C@H](C2CCC2)OC(=O)C(C)(C)/C=C/c2ccc3ccc(nc3c2)[C@@H](C)NC(=O)[C@@H]2CCCN(N2)C1=O ?
Response line: < 100 nM

====

- System: Huh-7 HCV replicon cells (1b replicon)
- Assay explanation: anti-HCV activity in Huh-7 cell line harboring a HCV replicon (luciferase readout)
- Format: cell-based
- Condition info: inhibition of viral replication, Huh-7 HCV replicon cells, 3 days; read-out: EC50
pEC50: −log10 of the molar value.
Catalogue of pEC50 readings, one per entry.

compound="CC1NC(=O)C(C(C)C)OC(=O)C2(/C=C/c3ccc4ccc(nc4c3)C(C)NC(=O)C3CCCN(N3)C1=O)CCC(O)CC2 (single isomer, unassigned) [Compound 77]" recorded_result="> 6.00"
compound="CC1NC(=O)C(C2CC2)OC(=O)C2(C=Cc3ccc4ccc(nc4c3)C(C)NC(=O)C3CCCN(N3)C1=O)CCC(O)C2 (single isomer, unassigned) [Compound 105]" recorded_result="5.00 to 5.96"

Prompt line: Would you mind telling me what pEC50 value was observed for CC1NC(=O)C(C(C)C)OC(=O)C2(/C=C/c3ccc4ccc(nc4c3)C(C)NC(=O)C3CCCN(N3)C1=O)CCC(O)CC2 (single isomer, unassigned) [Compound 76] ?
Response line: > 6.00

====

Below are IC50 values recorded for cyclophilin A (Homo sapiens).

These recorded examples may help you get a feel for the data.
compound="CC(C)[C@@H]1OC(=O)C2(/C=C/c3ccc4ccc(nc4c3)[C@@H](C)NC(=O)[C@@H]3CCCN(N3)C(=O)[C@H](C)NC1=O)CN(S(C)(=O)=O)CCO2 (stereo partly drawn)" reported_metric=IC50 recorded_result="< 100 nM"
compound=CC(C)[C@@H]1OC(=O)[C@]2(/C=C/c3ccc4ccc(nc4c3)[C@@H](C)NC(=O)[C@@H]3CCCN(N3)C(=O)[C@H](C)NC1=O)CCOC(C)(C)C2 reported_metric=IC50 recorded_result="< 100 nM"

Now consider the entry below.
Prompt line: Form: Entry = C[C@@H]1NC(=O)[C@H](C2CC2)OC(=O)C2(/C=C/c3ccc4ccc(nc4c3)[C@@H](C)NC(=O)[C@@H]3CCCN(N3)C1=O)COCCOC2 | System = cyclophilin A (Homo sapiens) | IC50 = ____
Response line: < 100 nM

====

- Tested on: Huh-7 HCV replicon cells (1b replicon)
- Assay explanation: anti-HCV activity in Huh-7 cell line harboring a HCV replicon (luciferase readout)
- Type: cell-based
- Condition info: Hepatitis C virus, Huh-7, read-out: Replicon 1b % inhibition at 1 μM, 1b replicon, 1 μM compound
Reported metric: inhibition at 1 µM (%)
// units = %; emit number, no label

Past entries and their recorded results:
molecule="CC(C)[C@@H]1OC(=O)[C@@]2(/C=C/c3ccc4ccc(nc4c3)[C@@H](C)NC(=O)[C@@H]3CCCN(N3)C(=O)[C@H](C)NC1=O)CCOC(C)(C)C2 [Compound 90]" system="Huh-7 HCV replicon cells (1b replicon)" reported_metric="inhibition at 1 µM" recorded_result=99
molecule="CC(C)[C@@H]1OC(=O)[C@H](C)[C@H](O)CCCCc2cccc(c2)[C@@H](C)NC(=O)[C@@H]2CCCN(N2)C(=O)[C@H](C)NC1=O [Compound 10]" system="Huh-7 HCV replicon cells (1b replicon)" reported_metric="inhibition at 1 µM" recorded_result=92

Now take the following molecule into account.
Prompt line: Consider the molecule C[C@@H]1NC(=O)[C@H](C2COC2)OC(=O)C(C)(C)/C=C/c2ccc3ccc(nc3c2)[C@@H](C)NC(=O)[C@@H]2CCCN(N2)C1=O [Compound 95] and give its measured inhibition at 1 µM.
Response line: 88

====

- System: UniProt:P62937
- Assay explanation: Cyclophilin A TR-FRET competitive binding assay
- Condition info: competition with CsA-Cy5 for His-tagged CypA, two-hour incubation
- Protocol: Cyclophilin A TR-FRET Competitive Binding Assay Inhibitor potency was measured using a competitive binding assay with a time-resolved fluorescence resonance energy transfer (TR-FRET) readout. […] An IC50 value was calculated using a four-parameter logistic fit.
Listing of recorded IC50 by entry.

molecule="CC(C)[C@@H]1OC(=O)C/C=C/c2cc3cc(ccc3cn2)[C@@H](C)NC(=O)[C@@H]2CCCN(N2)C(=O)[C@H](C)NC1=O [Compound 3]" reported_metric=IC50 recorded_result="< 100 nM"
molecule="CC(C)[C@@H]1OC(=O)C(C)(C)/C=C/c2ccc3ccc(nc3c2)[C@@H](C)N(C)C(=O)[C@@H]2CCCN(N2)C(=O)[C@H](CO)NC1=O [Compound 41]" reported_metric=IC50 recorded_result="< 100 nM"

Prompt line: Can you share its IC50? I mean this molecule: CC1/C=C/c2ccc3ccc(nc3c2)[C@@H](C)NC(=O)[C@@H]2CCCN(N2)C(=O)[C@H](C)NC(=O)[C@H](C(C)C)OC1 (single isomer, unassigned) [Compound 35]
Response line: < 100 nM

Prompt line: // lookup IC50 for CC(C)[C@@H]1OC(=O)C(CF)(CF)/C=C/c2ccc3ccc(nc3c2)[C@@H](C)NC(=O)[C@@H]2CCCN(N2)C(=O)[C@H](C)NC1=O [Compound 99]
Response line: < 100 nM

Prompt line: Quick one: IC50 for CC(C)[C@@H]1OC(=O)C2(/C=C/c3ccc4ccc(nc4c3)[C@@H](C)NC(=O)[C@@H]3CCCN(N3)C(=O)[C@H](C)NC1=O)CCCCO2 (mixture of isomers) [Compound 49] ?
Response line: < 100 nM

Prompt line: Reported IC50, molecule C[C@@H]1NC(=O)[C@H]([C@@H](C)OC(C)(C)C)OC(=O)C(C)(C)/C=C/c2ccc3ccc(nc3c2)[C@@H](C)NC(=O)[C@@H]2CCCN(N2)C1=O [Compound 86] : ____
Response line: 101 to 1000 nM

Prompt line: # input molecule: CCC[C@@H]1CCCc2cc3cc(ccc3cn2)[C@@H](C)NC(=O)[C@@H]2CCCN(N2)C(=O)[C@H](C)NC(=O)[C@H](C(C)C)OC1=O [Compound 9] ; wanted: its IC50
Response line: < 100 nM

Prompt line: Endpoint output: IC50 of CC(C)[C@@H]1OC(=O)[C@@](C)(COC(F)F)/C=C/c2ccc3ccc(nc3c2)[C@@H](C)NC(=O)[C@@H]2CCCN(N2)C(=O)[C@H](C)NC1=O [Compound 55] . Value?
Response line: < 100 nM

Prompt line: Recorded IC50 of CC(=O)CC[C@@H]1C/C=C/c2cc3cc(ccc3cn2)[C@@H](C)NC(=O)[C@@H]2CCCN(N2)C(=O)[C@H](C)NC(=O)[C@H](C(C)C)OC1=O (mixture of isomers) [Compound 14] , please.
Response line: < 100 nM

The measured values listed here are drawn from patent US9642889B2.
